# Test system: B55α interactors
# methodNotes: MS analysis of B55α WT, V228A, I284A, S287A and D340A immunopurifications
# Assay type: binding, human
# experimentalConditions: log2 ratio of interactor abundance, B55α I284A vs WT immunopurification, 4 replicates each, normalised to bait B55α
parameter: log2_ratio I284_WT
Could you respond with only the numeric value?

Lookup: Please give measured log2_ratio I284_WT of the following entry: RBM7_HUMAN (protein, UniProt Q9Y580 2-266, looked up) RNA-binding protein 7: GAAAAEADRTLFVGNLETKVTEELLFELFHQAGPVIKVKIPKDKDGKPKQFAFVNFKHEVSVPYAMNLLNGIKLYGRPIKIQFRSGSSHAPQDVSLSYPQHHVGNSSPTSTSPSRYERTMDNMTSSAQIIQRSFSSPENFQRQAVMNSALRQMSYGGKFGSSPLDQSGFSPSVQSHSHSFNQSSSSQWRQGTPSSQRKVRMNSYPYLADRHYSREQRYTDHGSDHHYRGKRDDFFYEDRNHDDWSHDYDNRRDSSRDGKWRSSRH
Found: -3.46

Values from paper PMC11446282
